- measured_target: T1, rat-derived G protein-coupled receptor protein TGR23-5 (rat TGR23-5) (rat, UniProt P0C0L6 1-372)
- T1 construct: Rat TGR23-1 with Ala inserted just before Glu at the 160th position; Expressed in CHO cells (pAKKO-rTGR23-5); also called rTGR23-5
- T1 sequence: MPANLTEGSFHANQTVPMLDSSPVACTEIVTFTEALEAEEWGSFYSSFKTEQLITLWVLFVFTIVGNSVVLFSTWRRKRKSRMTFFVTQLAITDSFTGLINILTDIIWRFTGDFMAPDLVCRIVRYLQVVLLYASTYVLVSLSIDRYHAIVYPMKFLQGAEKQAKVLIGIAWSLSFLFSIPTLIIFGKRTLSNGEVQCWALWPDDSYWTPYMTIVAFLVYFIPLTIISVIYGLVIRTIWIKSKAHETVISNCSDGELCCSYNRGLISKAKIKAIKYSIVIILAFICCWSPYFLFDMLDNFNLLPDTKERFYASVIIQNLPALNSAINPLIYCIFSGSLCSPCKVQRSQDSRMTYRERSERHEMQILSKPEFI
- test_method_notes: saturation binding with Scatchard analysis on the membrane fraction of rat TGR23-5 expressing CHO cells; row head 'Binding Constant'; text gives dissociation constant 125±8.36 (pM)
Where no end group is shown, it is not given here. [ ]: non-standard residue; d: D form. The star is where a group is joined. Nle = CCCC[C@H](N)C(=O)O; 125I = [125I]*
property_label: pKd
Answers are plain numbers, as −log10 of the molar value.

*Q* Supply measured pKd of SFRNGVGTG[Nle]KKTSY(125I)QRAKS [[Nle^10, ^125I-Tyr^15] human TGR23-2 ligand (1-20)] in your reply.
*A* 9.90
